The measured values listed here are drawn from PubChem BioAssay.

assay: reduction of polyQ htt aggregates in cells – imaging, exon1htt(103Q)mCFP cells, high-content imaging, primary screen (AID 483); details: exon1htt(103Q)mCFP cell line, aggregate imaging, at 2 µM; hits give high values;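 further: compound exposure lasted 3 days before fixation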
Can you tell me inhibition of aggregation for the items I'm about to list?
Answers are plain numbers, in %.

// below: answered compounds
{"columns": ["Compound", "inhibition of aggregation / %"],
 "data": [
  ["CC(C)Oc1cc2oc(=O)c3c(c2cc1Cl)CCC3", -21.6],
  ["O=C(NCC1CCCO1)C1CCCN(S(=O)(=O)c2cccc3nsnc23)C1 (centres undefined)", 30.3],
  ["Fc1cccc2sc(N3CCOCC3)nc12", 16.8],
  ["COCC(=O)N(C)c1nnc(-c2ccccn2)s1", 16.5]
]}

// input: 3 compounds below; output: inhibition of aggregation for each
1. COc1ccc(N(C)C(=O)CCS(=O)(=O)c2cccc3nonc23)c(OC)c1
2. CCN(Cc1cc2cc(OC)ccc2[nH]c1=O)C(=O)c1ccncc1
3. COc1ccccc1Nc1nc2ccccc2[nH]1

1. -17.3
2. -12.3
3. 4.6
